Target: T1, human LAP-TGFB1 Fc fusion (human)
T1 construct: also called human LAP-TGFβ1-Fc; human LAP-TGFβ-Fc isoform 1
T1 sequence (chain, as listed by the source limits assumed): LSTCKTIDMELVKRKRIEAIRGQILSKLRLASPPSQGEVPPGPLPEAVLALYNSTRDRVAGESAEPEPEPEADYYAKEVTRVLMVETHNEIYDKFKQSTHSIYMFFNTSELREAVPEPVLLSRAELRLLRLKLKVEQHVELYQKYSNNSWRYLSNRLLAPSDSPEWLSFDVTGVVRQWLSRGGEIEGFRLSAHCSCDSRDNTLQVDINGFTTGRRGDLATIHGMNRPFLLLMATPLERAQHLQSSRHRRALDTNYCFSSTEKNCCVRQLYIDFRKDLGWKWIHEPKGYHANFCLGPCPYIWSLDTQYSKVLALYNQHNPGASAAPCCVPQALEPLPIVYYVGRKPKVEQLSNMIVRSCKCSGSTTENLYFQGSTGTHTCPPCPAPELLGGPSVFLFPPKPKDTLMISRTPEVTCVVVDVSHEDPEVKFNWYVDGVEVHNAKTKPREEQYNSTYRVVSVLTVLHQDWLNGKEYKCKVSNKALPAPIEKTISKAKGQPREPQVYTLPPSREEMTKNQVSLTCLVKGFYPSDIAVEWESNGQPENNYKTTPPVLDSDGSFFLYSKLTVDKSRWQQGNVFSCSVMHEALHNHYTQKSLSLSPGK
Test: SPR, antigen-Fc captured, Fab analyte
Observable: pKd
Value format note: pKd is -log10 of concentration (mol/L); just state the number.

- Binder: "82BJN (Fab, V domains shown, also called VH W33Y H35N I58V D100H Y104Q / VL T30Y R53G (82BJN)) VH: EVQLVQSGAEVKKPGASVKVSCKASGYTFTSYYMNWVRQAPGQGLEWMGRIDPQSGGVKYAQKFQGRATLTVDTSTSTAYMELSRLRSDDTAVYYCARWHYGGQFDVWGQGTLVTVSS VL: DIQMTQSPSSLSASVGDRVTITCRASQDIYNYLNWYQQKPGKAVKLLIYYTSGLHSGVPSRFSGSGSGTDYTLTISSLQPEDFATYFCQQGDTLPWTFGQGTKLEIKR"
  pKd: 11.03
- Binder: "80BJN (Fab, V domains shown, also called VH W33D K59R Y104Q / VL T30Y R53I (80BJN)) VH: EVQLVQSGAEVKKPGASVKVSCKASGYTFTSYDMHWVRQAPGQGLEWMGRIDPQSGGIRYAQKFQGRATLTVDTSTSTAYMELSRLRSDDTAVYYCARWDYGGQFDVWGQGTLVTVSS VL: DIQMTQSPSSLSASVGDRVTITCRASQDIYNYLNWYQQKPGKAVKLLIYYTSILHSGVPSRFSGSGSGTDYTLTISSLQPEDFATYFCQQGDTLPWTFGQGTKLEIKR"
  pKd: 11.22
- Binder: "58BJN (Fab, V domains shown, also called VH W33D W99Y Y101H / VL T30Y (58BJN)) VH: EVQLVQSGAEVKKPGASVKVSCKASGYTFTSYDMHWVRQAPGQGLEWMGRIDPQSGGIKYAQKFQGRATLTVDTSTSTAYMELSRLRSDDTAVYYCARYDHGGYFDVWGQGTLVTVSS VL: DIQMTQSPSSLSASVGDRVTITCRASQDIYNYLNWYQQKPGKAVKLLIYYTSRLHSGVPSRFSGSGSGTDYTLTISSLQPEDFATYFCQQGDTLPWTFGQGTKLEIKR"
  pKd: 8.19
- Binder: "61BJN (Fab, V domains shown, also called VH S31D W33D G57D I58H K59D W99Y Y101H / VL T30Y (61BJN)) VH: EVQLVQSGAEVKKPGASVKVSCKASGYTFTDYDMHWVRQAPGQGLEWMGRIDPQSGDHDYAQKFQGRATLTVDTSTSTAYMELSRLRSDDTAVYYCARYDHGGYFDVWGQGTLVTVSS VL: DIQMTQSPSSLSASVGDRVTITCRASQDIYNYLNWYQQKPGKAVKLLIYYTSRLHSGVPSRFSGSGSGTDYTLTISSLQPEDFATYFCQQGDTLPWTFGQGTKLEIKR"
  pKd: 6.76

Entry 63BJN (Fab, V domains shown, also called VH S31F W33D M34I / VL T30Y (63BJN)) VH: EVQLVQSGAEVKKPGASVKVSCKASGYTFTFYDIHWVRQAPGQGLEWMGRIDPQSGGIKYAQKFQGRATLTVDTSTSTAYMELSRLRSDDTAVYYCARWDYGGYFDVWGQGTLVTVSS VL: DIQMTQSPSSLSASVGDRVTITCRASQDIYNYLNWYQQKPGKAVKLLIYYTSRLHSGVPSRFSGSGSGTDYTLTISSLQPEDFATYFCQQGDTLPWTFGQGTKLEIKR : reported pKd = ? 8.49
